- TESTED ON: LYCHOS (GPR155) (Homo sapiens, UniProt Q7Z3F1, L177W)
- Sequence (Q7Z3F1 1-870 L177W): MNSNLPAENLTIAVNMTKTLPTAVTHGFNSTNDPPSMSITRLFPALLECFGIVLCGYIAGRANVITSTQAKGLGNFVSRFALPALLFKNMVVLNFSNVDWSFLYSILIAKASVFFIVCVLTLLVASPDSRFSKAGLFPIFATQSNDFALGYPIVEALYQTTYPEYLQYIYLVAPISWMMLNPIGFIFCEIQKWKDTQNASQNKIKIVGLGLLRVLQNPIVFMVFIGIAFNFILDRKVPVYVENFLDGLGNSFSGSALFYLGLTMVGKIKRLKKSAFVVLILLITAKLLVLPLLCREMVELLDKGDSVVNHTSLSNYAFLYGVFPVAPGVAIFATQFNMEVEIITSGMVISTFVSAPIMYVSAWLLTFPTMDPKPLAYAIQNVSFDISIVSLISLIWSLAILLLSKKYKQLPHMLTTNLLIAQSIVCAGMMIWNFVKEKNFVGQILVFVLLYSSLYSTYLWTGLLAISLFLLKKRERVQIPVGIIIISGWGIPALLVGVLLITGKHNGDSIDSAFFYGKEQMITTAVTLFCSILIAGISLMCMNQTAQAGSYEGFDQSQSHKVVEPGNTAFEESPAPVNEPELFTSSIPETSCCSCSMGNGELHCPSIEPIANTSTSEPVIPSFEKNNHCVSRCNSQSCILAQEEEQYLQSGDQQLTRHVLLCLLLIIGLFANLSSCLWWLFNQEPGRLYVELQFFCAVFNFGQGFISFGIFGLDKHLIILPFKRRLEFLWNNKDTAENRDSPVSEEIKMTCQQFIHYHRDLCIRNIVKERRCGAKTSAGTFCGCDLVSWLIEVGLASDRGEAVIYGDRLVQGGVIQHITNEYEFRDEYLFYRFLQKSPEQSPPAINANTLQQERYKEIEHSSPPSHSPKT
- PROCEDURE TEXT: SPR steady-state affinity
MEASUREMENT LABEL: pKd
Remember the convention: pKd equals -log10 of concentration in molar.

query: Sample O=C(O)Cc1c[nH]c2ccccc12 — what was its pKd?
result: 2.41
